System: A375 cells (malignant melanoma)
Assay: Inhibition of cancer cell proliferation, A375 (CellTiterGlo, 72 hours)
Type: cell-based
Conditions: Homo sapiens, A-375
Recorded GI50 for the following molecules

The following molecules have reported results that may help.
CC(C)S(=O)(=O)c1ccccc1Nc1nc(N[C@H]2CCCN(C(=O)CO)C2)ncc1C(F)(F)F: < 100 nM
C=CC(=O)Nc1cc(C)ccc1Nc1nc(Nc2cc(OC)nc(OC)c2)ncc1C(F)(F)F: 101 to 500 nM
C=CC(=O)Nc1cc(C)ccc1Nc1nc(Nc2nc(OC)ncc2C(F)(F)F)ncc1C(F)(F)F: 101 to 500 nM
C=CC(=O)Nc1ccccc1Nc1nc(N[C@H]2CCN(C(=O)CO)C2)ncc1C(F)(F)F: 101 to 500 nM
C=CC(=O)Nc1cc(CN2CCN(C(=O)c3cccnc3)CC2)ccc1Nc1nc(Nc2cc(OC)ncc2C)ncc1C(F)(F)F: < 100 nM

IN: I'm curious: which GI50 was measured for "C=CC(=O)Nc1ccccc1Nc1nc(Nc2cc(CO)c(F)cc2C)ncc1C(F)(F)F" tested on A375 cells (malignant melanoma)?
OUT: 101 to 500 nM

IN: And then "C=CC(=O)Nc1cc(C)ccc1Nc1nc(Nc2cc(OC)nc(N3CCN(C(C)=O)CC3)c2)ncc1Cl" , what is it?
OUT: < 100 nM

IN: And then "C=CC(=O)Nc1cc(C)ccc1Nc1nc(N[C@H]2CCCN(C(=O)CO)C2)ncc1Cl" , what is it?
OUT: < 100 nM
